# experimental-system: isolated recombinant JAK1 kinase domain (Homo sapiens (Human), UniProt P23458)
# Sequence (P23458 875-1153): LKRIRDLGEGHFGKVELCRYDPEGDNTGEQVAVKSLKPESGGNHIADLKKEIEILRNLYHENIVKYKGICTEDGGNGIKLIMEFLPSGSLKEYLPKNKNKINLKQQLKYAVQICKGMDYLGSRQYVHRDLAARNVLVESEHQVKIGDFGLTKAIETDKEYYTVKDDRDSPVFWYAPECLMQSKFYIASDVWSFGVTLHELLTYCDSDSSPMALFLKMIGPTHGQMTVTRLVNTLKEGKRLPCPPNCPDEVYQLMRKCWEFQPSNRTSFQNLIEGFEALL
# protocol-notes: JAK1 enzyme assay (Caliper LabChip, Ki)
# Type: biochemical
# condition-set: isolated recombinant JAK1 kinase domain, 1.5 nM enzyme, ATP 25 μM
Kindly state pKi for each of the entries shown.
Here pKi is given on a logarithmic scale as minus log10 of the concentration in mol/L.

**Q:** Find pKi for CN1CCN(C(=O)Cn2cc(Nc3nc4c(N5CC6CCC(C5)N6C(=O)CC(F)(F)F)cccn4n3)cn2)CC1 on isolated recombinant JAK1 kinase domain (Homo sapiens (Human), UniProt P23458) and write it down.
**A:** 9.15

**Q:** Find pKi for CN(C1CCN(C(=O)Cn2cc(Nc3nc4c(N5CC6CCC(C5)N6C(=O)CCC(F)(F)F)cccn4n3)cn2)CC1)C1COC1 on isolated recombinant JAK1 kinase domain (Homo sapiens (Human), UniProt P23458) and write it down.
**A:** 9.15

**Q:** Find pKi for CN1CCN(C(=O)Cn2cc(Nc3nc4c(N5CC6CCC(C5)N6C(=O)[C@H]5C[C@@H](C(F)(F)F)C5)cccn4n3)cn2)CC1 on isolated recombinant JAK1 kinase domain (Homo sapiens (Human), UniProt P23458) and write it down.
**A:** 8.96

**Q:** Find pKi for Cc1ccc(CO[C@H]2[C@@H]3CC[C@H]2CN(c2cccn4nc(Nc5cnn(CC(=O)N6CCN(C)CC6)c5)nc24)C3)cn1 on isolated recombinant JAK1 kinase domain (Homo sapiens (Human), UniProt P23458) and write it down.
**A:** 9.22

**Q:** Find pKi for CN1CCN(C(=O)Cn2cc(Nc3nc4c(N5CC6CCC(C5)N6C(=O)C5CCC(F)(F)CC5)cccn4n3)cn2)CC1 on isolated recombinant JAK1 kinase domain (Homo sapiens (Human), UniProt P23458) and write it down.
**A:** 8.70

**Q:** Find pKi for CSc1cccc(S(=O)(=O)N2C3CCC2CN(c2cccn4nc(Nc5cnn(CC(=O)N6CCN(C)CC6)c5)nc24)C3)c1 on isolated recombinant JAK1 kinase domain (Homo sapiens (Human), UniProt P23458) and write it down.
**A:** 9.22

**Q:** Find pKi for CN1CCN(C(=O)Cn2cc(Nc3nc4c(N5C[C@H]6CC[C@@H](C5)[C@H]6OCc5ccncc5)cccn4n3)cn2)CC1 on isolated recombinant JAK1 kinase domain (Homo sapiens (Human), UniProt P23458) and write it down.
**A:** 9.10

**Q:** Find pKi for O=C(Cn1cc(Nc2nc3c(N4CC5CCC(C4)N5C(=O)N4CC(C(F)(F)F)C4)cccn3n2)cn1)N1CCN(C2COC2)CC1 on isolated recombinant JAK1 kinase domain (Homo sapiens (Human), UniProt P23458) and write it down.
**A:** 9.05

**Q:** Find pKi for CN1CCN(C(=O)Cn2cc(Nc3nc4c(N5CC6CCC(C5)N6C(=O)C5CC(F)(F)C5)cccn4n3)cn2)CC1 on isolated recombinant JAK1 kinase domain (Homo sapiens (Human), UniProt P23458) and write it down.
**A:** 8.85

**Q:** Find pKi for CN1CCN(C(=O)Cn2cc(Nc3nc4c(N5CC6CCC(C5)N6S(=O)(=O)Cc5ccccc5)cccn4n3)cn2)CC1 on isolated recombinant JAK1 kinase domain (Homo sapiens (Human), UniProt P23458) and write it down.
**A:** 9.00

**Q:** Find pKi for CSCCN1CCN(C(=O)Cn2cc(Nc3nc4c(N5CC6CCC(C5)N6C(=O)C5CC(C(F)(F)F)C5)cccn4n3)cn2)CC1 (centres unmarked) [Example 197] on isolated recombinant JAK1 kinase domain (Homo sapiens (Human), UniProt P23458) and write it down.
**A:** 9.52

**Q:** Find pKi for CN1CCN(C(=O)Cn2cc(Nc3nc4c(N5CC6CCC(C5)N6C(=O)N5CCC(F)(F)CC5)cccn4n3)cn2)CC1 on isolated recombinant JAK1 kinase domain (Homo sapiens (Human), UniProt P23458) and write it down.
**A:** 9.70

**Q:** Find pKi for CN1CCN(C(=O)Cn2cc(Nc3nc4c(N5CC6CCC(C5)N6C(=O)COCC(F)(F)F)cccn4n3)cn2)CC1 on isolated recombinant JAK1 kinase domain (Homo sapiens (Human), UniProt P23458) and write it down.
**A:** 9.00

**Q:** Find pKi for CN(C1CCN(C(=O)Cn2cc(Nc3nc4c(N5CC6CCC(C5)N6C(=O)N5CC(C(F)(F)F)C5)cccn4n3)cn2)CC1)C1COC1 on isolated recombinant JAK1 kinase domain (Homo sapiens (Human), UniProt P23458) and write it down.
**A:** 9.15

**Q:** Find pKi for CN1CCN(C(=O)Cn2cc(Nc3nc4c(N5CC6CCCC(C5)N6C(=O)[C@H]5C[C@@H](C(F)(F)F)C5)cccn4n3)cn2)CC1 on isolated recombinant JAK1 kinase domain (Homo sapiens (Human), UniProt P23458) and write it down.
**A:** 9.22

**Q:** Find pKi for CSc1ccccc1S(=O)(=O)N1C2CCC1CN(c1cccn3nc(Nc4cnn(CC(=O)N5CCN(C)CC5)c4)nc13)C2 on isolated recombinant JAK1 kinase domain (Homo sapiens (Human), UniProt P23458) and write it down.
**A:** 9.40

**Q:** Find pKi for CN1CCN(C(=O)Cn2cc(Nc3nc4c(N5CC6CCC(C5)N6C(=O)N5CCC(C(F)(F)F)C5)cccn4n3)cn2)CC1 (centres unmarked) on isolated recombinant JAK1 kinase domain (Homo sapiens (Human), UniProt P23458) and write it down.
**A:** 9.10

**Q:** Find pKi for CN1CCN(C(=O)Cn2cc(Nc3nc4c(N5CC6CCCC(C5)N6C(=O)CCC(F)(F)F)cccn4n3)cn2)CC1 on isolated recombinant JAK1 kinase domain (Homo sapiens (Human), UniProt P23458) and write it down.
**A:** 9.30

**Q:** Find pKi for CN1CCN(C(=O)Cn2cc(Nc3nc4c(N5CC6CCC(C5)N6C(=O)N5CC(F)(F)C5)cccn4n3)cn2)CC1 on isolated recombinant JAK1 kinase domain (Homo sapiens (Human), UniProt P23458) and write it down.
**A:** 9.30

**Q:** Find pKi for O=C(Cn1cc(Nc2nc3c(N4CC5CCC(C4)N5C(=O)N4CC(C(F)(F)F)C4)cccn3n2)cn1)N1CCN(C2CSC2)CC1 on isolated recombinant JAK1 kinase domain (Homo sapiens (Human), UniProt P23458) and write it down.
**A:** 9.22

**Q:** Find pKi for CN1CCN(C(=O)Cn2cc(Nc3nc4c(N5CC6CCC(C5)N6C(=O)c5cccc(CC#N)c5)cccn4n3)cn2)CC1 on isolated recombinant JAK1 kinase domain (Homo sapiens (Human), UniProt P23458) and write it down.
**A:** 8.64

**Q:** Find pKi for CC(C(=O)N1CCN(C)CC1)n1cc(Nc2nc3c(N4CC5CCC(C4)N5C(=O)C4CC(C(F)(F)F)C4)cccn3n2)cn1 (centres unmarked) [Example 125] on isolated recombinant JAK1 kinase domain (Homo sapiens (Human), UniProt P23458) and write it down.
**A:** 9.22

**Q:** Find pKi for O=C(Cn1cc(Nc2nc3c(N4CC5CCC(C4)N5C(=O)CCC(F)(F)F)cccn3n2)cn1)N1CCN(C2CCC2)CC1 on isolated recombinant JAK1 kinase domain (Homo sapiens (Human), UniProt P23458) and write it down.
**A:** 9.22

**Q:** Find pKi for CN1CCN(C(=O)Cn2cc(Nc3nc4c(N5CC6CCC(C5)N6S(=O)(=O)Cc5ccc(Cl)cc5)cccn4n3)cn2)CC1 on isolated recombinant JAK1 kinase domain (Homo sapiens (Human), UniProt P23458) and write it down.
**A:** 9.15

**Q:** Find pKi for CN1CCN(C(=O)Cn2cc(Nc3nc4c(N5CC6CCC(C5)N6S(=O)(=O)c5cccc(F)c5)cccn4n3)cn2)CC1 on isolated recombinant JAK1 kinase domain (Homo sapiens (Human), UniProt P23458) and write it down.
**A:** 8.89

**Q:** Find pKi for N#CC1(CNC2CCN(C(=O)Cn3cc(Nc4nc5c(N6CC7CCC(C6)N7C(=O)C6CC(C(F)(F)F)C6)cccn5n4)cn3)CC2)CC1 (centres unmarked) [Example 190] on isolated recombinant JAK1 kinase domain (Homo sapiens (Human), UniProt P23458) and write it down.
**A:** 9.00

---

# experimental-system: isolated recombinant JAK1 kinase domain (Homo sapiens (Human), UniProt P23458)
# protocol-notes: JAK1 enzyme assay (Caliper LabChip, Ki)
# Format: biochemical
# condition-set: isolated recombinant JAK1 kinase domain, 1.5 nM enzyme, ATP 25 μM
Kindly state Ki for each of the entries shown.

**Q:** Return Ki (reported value) for this compound: CN1CCN(C(=O)Cn2cc(Nc3nc4c(N5CC6CCC(C5)N6Cc5ccccc5C#N)cccn4n3)cn2)CC1 [Example 63]
**A:** 1.8 nM

**Q:** Return Ki (reported value) for this compound: CN1CCN(C(=O)Cn2cc(Nc3nc4c(N5C[C@H]6CC[C@@H](C5)[C@H]6OCc5cccc(CO)c5)cccn4n3)cn2)CC1 [Example 195]
**A:** 0.4 nM

**Q:** Return Ki (reported value) for this compound: CN1CCN(C(=O)Cn2cc(Nc3nc4c(N5CC6CCC(C5)N6C(=O)C(C)(C)CC(F)(F)F)cccn4n3)cn2)CC1 [Example 71]
**A:** 1.8 nM

**Q:** Return Ki (reported value) for this compound: CSc1ccc(S(=O)(=O)N2C3CCC2CN(c2cccn4nc(Nc5cnn(CC(=O)N6CCN(C)CC6)c5)nc24)C3)cc1 [Example 107]
**A:** 0.4 nM

**Q:** Return Ki (reported value) for this compound: CN1CCN(C(=O)Cn2cc(Nc3nc4c(N5CC6CCC(C5)N6S(=O)(=O)Cc5ccc(C#N)cc5)cccn4n3)cn2)CC1 [Example 168]
**A:** 2.7 nM

**Q:** Return Ki (reported value) for this compound: CC(C(=O)N1CCN(C)CC1)n1cc(Nc2nc3c(N4CC5CCCC(C4)N5C(=O)CCC(F)(F)F)cccn3n2)cn1 (stereo not shown) [Example 106]
**A:** 1.6 nM

**Q:** Return Ki (reported value) for this compound: CN1CCN(C(=O)Cn2cc(Nc3nc4c(N5CC6CCC(C5)N6C(=O)C5(C#N)CCC5)cccn4n3)cn2)CC1 [Example 116]
**A:** 2.5 nM
